Hey, just so you know, these numbers are from PubChem BioAssay AID1963833.

Tested on: 883617-216-R-J1-PDC complex spheroid viability;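 note: spheroids exposed to compounds for seven days before readout; 100% = DMSO vehicle control viability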
ASSAY: Anticancer human tumor 883617-216-R-J1-PDC patient-derived bladder carcinoma cell line growth inhibition [POLQ]
EXPERIMENTAL_PARAMETERS: second compound 0.316 µM; first compound 0.1 µM; hits give low values
Reported viability, T/C values follow for various compounds
OBSERVED_PROPERTY: viability, T/C (%)

{"COMPOUND": "CC1COCCN1c1cc(C2(O)CC3CCC(C2)O3)c2cnn(-c3ccn[nH]3)c2n1 (stereo not given) + Cc1cccc(N(C)C(=O)C2C(O)CCN2c2nc(C)cc(C(F)(F)F)c2C#N)c1", "UNITS_SYMBOL": "%", "MEASUREMENT": 61.2}
{"COMPOUND": "O=C(Nc1ccc(O)c(NS(=O)(=O)c2ccc(F)cc2)c1)c1ccc(-c2ccccc2)cc1 + Nc1ccc(C#CCN(C(=O)Cc2ncc(C(F)(F)F)cc2C(F)(F)F)c2ccc(F)cc2)nn1", "UNITS_SYMBOL": "%", "MEASUREMENT": 102}
{"COMPOUND": "CC1COCCN1c1cc(C2(O)CC3CCC(C2)O3)c2cnn(-c3ccn[nH]3)c2n1 (stereo not given) + Nc1ccc(C#CCN(C(=O)Cc2ncc(C(F)(F)F)cc2C(F)(F)F)c2ccc(F)cc2)nn1", "UNITS_SYMBOL": "%", "MEASUREMENT": 63.2}
{"COMPOUND": "COc1cccc2c1C(=O)c1c(O)c3c(c(O)c1C2=O)CC(O)(C(=O)CO)CC3OC1CC(N)C(O)C(C)O1 (stereo not given) + Nc1ccc(C#CCN(C(=O)Cc2ncc(C(F)(F)F)cc2C(F)(F)F)c2ccc(F)cc2)nn1", "UNITS_SYMBOL": "%", "MEASUREMENT": 72.2}
{"COMPOUND": "COc1cccc(OCCCN)c1-c1cc(Nc2cnc(C#N)cn2)n[nH]1 + Cc1cccc(N(C)C(=O)C2C(O)CCN2c2nc(C)cc(C(F)(F)F)c2C#N)c1", "UNITS_SYMBOL": "%", "MEASUREMENT": 45.7}
